B1: EPB41L3 (parent)
chain: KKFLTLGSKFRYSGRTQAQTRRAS

Variants of: B1
Test: protein stability index of a GFP-peptide fusion (GPS, HEK-293T) (PSI 1-6); higher = more stable;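 further: lentivirally expressed fusions sorted by FACS into six bins by GFP to DsRed ratio, PSI derived from sequencing read proportions per bin multiplied by bin number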
Conditions: c terminus: a fixed tail appended
endpointName: protein stability index

Answer with reported protein stability index of S8E
3.26

Answer with reported protein stability index of G14D
2.81

Answer with reported protein stability index of F3H
3.82

Answer with reported protein stability index of S8R
3.46

Answer with reported protein stability index of K2G
2.59

Answer with reported protein stability index of T5E
2.96

Answer with reported protein stability index of L4V
3.02

Answer with reported protein stability index of Q17M
2.77

Values compiled from the supplement of paper PMC10567573.
